Counter-ions that a name gives are not always drawn.
Endpoint Name: melting point

>>> result("COc1ccc2c(c1)CCC(C)(CN1CCC(c3ccccc3)CC1)NC2=O (stereo not drawn)")
"127 to 128 °C"
>>> result("CC(C)COc1ccc2c(c1)C(=O)NC(CC(C)(C)C)C2 (stereo not drawn)")
"142 to 143 °C"
>>> result("CCCOc1ccc2c(c1)NC(=O)C(CC(C)(C)C)CC2 (stereo not drawn)")
"117 to 119 °C"
>>> result("OCC1c2ccc(OCc3ccccc3)cc2CCN1CCN1CCC(c2ccccc2)CC1 (stereo not drawn) (as salt: hydrochloride)")
"205 to 210 °C (dec.)"
>>> result("COc1ccc2c(c1)NC(=O)C(CC(C)(C)C)C2 (stereo not drawn)")
"118 to 119 °C"
>>> result("COc1ccc2c(c1)CC(C)(CN1CCC(c3ccccc3)CC1)NC2=O (stereo not drawn)")
"93 to 95 °C"
>>> result("CC(C)Oc1ccc2c(c1)C(=O)NC(CC(C)(C)C)C2 (stereo not drawn)")
"135 to 136 °C"
>>> result("COc1ccc2c(c1)CCN(CCN1CCC(c3ccccc3)CC1)C2=O (as salt: hydrochloride) [Example 1, Monohydrochloride]")
"232 to 235 °C"
>>> result("CC(C)COc1ccc2c(c1)NC(=O)C(CC(C)(C)C)CC2 (stereo not drawn)")
"139 to 140 °C"

###

Endpoint Name: melting point

>>> result("CCCOc1ccc2c(c1)C(=O)NC(CC(C)(C)C)C2 (stereo not shown)")
"88 to 90 °C"
>>> result("CC(C)Oc1ccc2c(c1)C(=O)NC(CC(C)(C)C)CC2 (stereo not shown)")
"113 to 114 °C"
>>> result("CCOc1ccc2c(c1)NC(=O)C(CC(C)(C)C)CC2 (stereo not shown)")
"136 to 138 °C"
>>> result("CC(C)(C)CC1CCc2ccc(OCc3ccccc3)cc2C(=O)N1 (stereo not shown)")
"142 to 143 °C"
>>> result("CC(C)(C)CC1CCc2ccc(OCc3ccccc3)cc2NC1=O (stereo not shown)")
"150 to 151 °C"
>>> result("COc1ccc2c(c1)C(=O)NC(CC(C)(C)C)C2 (stereo not shown)")
"113 to 114 °C"
>>> result("CCCOc1ccc2c(c1)C(=O)NC(CC(C)(C)C)CC2 (stereo not shown)")
"132 to 133 °C"
>>> result("CC(C)(C)CC1Cc2ccc(OCc3ccccc3)cc2C(=O)N1 (stereo not shown)")
"139 to 140 °C"
>>> result("CC(C)Oc1ccc2c(c1)NC(=O)C(CC(C)(C)C)CC2 (stereo not shown)")
"132 to 134 °C"
>>> result("CCOc1ccc2c(c1)C(=O)NC(CC(C)(C)C)C2 (stereo not shown)")
"129 to 130 °C"
>>> result("CCCOc1ccc2c(c1)NC(=O)C(CC(C)(C)C)C2 (stereo not shown)")
"109 to 110 °C"
>>> result("CCOc1ccc2c(c1)C(=O)NC(CC(C)(C)C)CC2 (stereo not shown)")
"159 to 160 °C"
>>> result("CC(C)COc1ccc2c(c1)C(=O)NC(CC(C)(C)C)CC2 (stereo not shown)")
"148 to 149 °C"
